Source of measurements: patent US20110098269A1

Structures can show the parent of a compound that is named as a salt.
Parameter 'readout' = Ki; parameter 'system' = UniProt Q9Y5N1.
Sequence (Q9Y5N1 whole entry): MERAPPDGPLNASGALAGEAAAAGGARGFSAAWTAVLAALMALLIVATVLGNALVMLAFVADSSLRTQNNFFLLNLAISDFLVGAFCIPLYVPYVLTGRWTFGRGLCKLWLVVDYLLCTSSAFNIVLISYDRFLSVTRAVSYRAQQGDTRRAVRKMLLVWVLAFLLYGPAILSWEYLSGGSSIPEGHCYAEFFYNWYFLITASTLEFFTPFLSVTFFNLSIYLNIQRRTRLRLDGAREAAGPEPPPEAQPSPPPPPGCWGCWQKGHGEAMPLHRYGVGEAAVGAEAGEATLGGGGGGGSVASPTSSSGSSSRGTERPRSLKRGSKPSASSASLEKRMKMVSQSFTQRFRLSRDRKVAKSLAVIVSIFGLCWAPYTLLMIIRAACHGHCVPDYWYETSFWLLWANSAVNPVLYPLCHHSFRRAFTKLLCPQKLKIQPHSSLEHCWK

compound	Ki
C[C@@H]1CCCN1CCc1ccc(-c2ccc(=O)n(-c3ccccc3)n2)cc1 [Example 66]	< 100 nM
Cn1nc(-c2ccc3c(c2)CCN(C2CCC2)CC3)ccc1=O [Example 21]	< 100 nM
CC(C)n1nc(-c2ccc3c(c2)CCNCC3)ccc1=O [Example 5]	100 to 1000 nM
CC(C)N1CCc2ccc(-c3ccc(=O)n(C(C)C)n3)cc2CC1 [Example 8]	100 to 1000 nM
COCn1ncc(Oc2ccc3c(c2)CCN(C2CCCC2)CC3)cc1=O [Example 38]	< 100 nM
CCN1N=C(c2ccc3c(c2)CCN(C2CCC2)CC3)CCC1=O [Example 12]	< 100 nM
CC(C)n1nc(-c2ccc3c(c2)CCN(C2CCC2)CC3)ccc1=O [Example 7]	< 100 nM
Cn1nc(-c2ccc3c(c2)CCNCC3)ccc1=O [Example 20]	> 1000 nM
O=C1NN=C(c2ccc3c(c2)CCN(C2CCC2)CC3)C2CC12 (stereo not shown) [Example 40]	< 100 nM
Cn1ncc(Oc2ccc3c(c2)CCN(C2CCCC2)CC3)cc1=O [Example 36]	< 100 nM
CC(C)N1CCc2ccc(-c3ccc(=O)n(C)n3)cc2CC1 [Example 22, HCl]	100 to 1000 nM
CC(C)N1N=C(c2ccc3c(c2)CCNCC3)CCC1=O [Example 3]	100 to 1000 nM
CCN(CCc1ccc(-c2ccc(=O)n(C)n2)cc1)C1CCC1 [Example 62]	100 to 1000 nM
O=c1ccc(-c2ccc(CCN3CCCCC3)cc2)nn1-c1ccccc1 [Example 65]	100 to 1000 nM
O=C1NN=C(c2ccc3c(c2)CCNCC3)C2CCCC12 (stereo not shown) [Example 41]	100 to 1000 nM
CC(C)N1CCc2ccc(C3=NN(C(C)C)C(=O)CC3)cc2CC1 [Example 6]	100 to 1000 nM
Cn1nc(-c2ccc(C(=O)N3CCN(C4CCCC4)CC3)cc2)ccc1=O [Example 46]	100 to 1000 nM
CCCCN1N=C(c2ccc3c(c2)CCN(C2CCC2)CC3)CCC1=O [Example 13]	< 100 nM
O=c1ccc(-c2ccc3c(c2)CCN(C2CCC2)CC3)nn1CCO [Example 18]	< 100 nM

----------
Attribute: melting point
Where a name gives a salt, the structure may show the parent alone.

compound	melting point
CC(C)N1N=C(c2ccc3c(c2)CCN(C2CCC2)CC3)CCC1=O	140 to 141 °C
O=C1NN=C(c2ccc3c(c2)CCNCC3)C2CC12 (stereo not drawn) (as salt: HCl)	148 to 151 °C
O=C1NN=C(c2ccc3c(c2)CCN(C2CCC2)CC3)C2CCCCC12 (stereo not drawn)	223 to 225 °C
Cn1nc(-c2ccc(C(=O)N3CCN(C4CCCC4)CC3)cc2)ccc1=O	177 to 179 °C
O=C1CCC(c2ccc3c(c2)CCN(C2CCC2)CC3)=NN1CC(F)(F)F	139 to 140 °C
O=C1CCC(c2ccc3c(c2)CCN(C2CCC2)CC3)=NN1CCO	141 to 142 °C
CCN1N=C(c2ccc3c(c2)CCN(C2CCC2)CC3)CCC1=O	97 to 98 °C
CC(C)N1CCN(C(=O)c2ccc(-c3ccc(=O)n(C)n3)cc2)CC1	131 to 132 °C
CC(C)n1nc(-c2ccc(Oc3ccc4c(c3)CCN(C3CCC3)CC4)nc2)ccc1=O	70 to 73 °C
C[C@@H]1CCCN1CCc1ccc2cc(-c3ccc(=O)[nH]n3)ccc2c1 (as salt: HCl)	295 to 298 °C
O=c1ccc(-c2ccc3c(c2)CCN(C2CCC2)CC3)nn1CCO	157 to 158 °C
O=c1ccc(-c2ccc(Oc3ccc4c(c3)CCN(C3CCC3)CC4)nc2)nn1-c1ccccn1	178 to 182 °C

----------
# target_or_system: rat histamine H3 receptor (Rattus norvegicus, UniProt Q9QYN8)
# Sequence (Q9QYN8 whole entry): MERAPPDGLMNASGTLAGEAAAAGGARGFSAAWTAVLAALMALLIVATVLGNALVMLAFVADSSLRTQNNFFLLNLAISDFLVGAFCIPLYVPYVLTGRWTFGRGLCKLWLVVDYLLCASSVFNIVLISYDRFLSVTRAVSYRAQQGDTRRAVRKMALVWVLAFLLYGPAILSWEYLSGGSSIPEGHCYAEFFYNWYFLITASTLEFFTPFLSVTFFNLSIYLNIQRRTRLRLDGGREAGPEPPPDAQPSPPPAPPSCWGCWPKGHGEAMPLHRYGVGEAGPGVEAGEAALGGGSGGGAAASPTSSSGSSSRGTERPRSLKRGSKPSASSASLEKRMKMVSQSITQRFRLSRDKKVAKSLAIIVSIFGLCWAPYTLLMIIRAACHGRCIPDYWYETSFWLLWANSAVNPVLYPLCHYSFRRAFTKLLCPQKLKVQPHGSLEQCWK
pKi: −log10 of the molar value.
Recorded pKi for the following compounds
measured_attribute: pKi

compound	measured_attribute	reported
CCCCN1N=C(c2ccc3c(c2)CCN(C2CCC2)CC3)CCC1=O [Example 13]	pKi	> 7.00
C[C@@H]1CCCN1CCc1ccc(-c2ccc(=O)n(-c3ccc(F)cc3)n2)cc1 [Example 67]	pKi	> 7.00
CC(C)n1nc(-c2ccc3c(c2)CCNCC3)ccc1=O [Example 5]	pKi	6.00 to 7.00
